Measured Target: Heat shock protein HSP 90-alpha (Homo sapiens) (UniProt P07900)
Assay Overview: inhibitors of HSP90 chaperone activity – cell lysate, luminescence, confirmation (AID 1846)
Measurement Context: rabbit reticulocyte lysate, luciferase refolding luminescence, 3 h; at 5.9 µM; hits give high values
The campaign covered roughly 2,300 compounds. About 1,500 (65%) were called active. So high a share suggests a set chosen from earlier hits. These entries were drawn from the full list.
Classify by inhibition. Ranges: lo = under 30%, med = from 30% up to 60%, hi = 60% and over

-- ask # bin lookup: classify Cc1sc2nc(CSCC(=O)Nc3c(Cl)cccc3Cl)[nH]c(=O)c2c1C by its inhibition
-- reply lo

-- ask Follow-up entry: COC(=O)c1sc(NC(=O)c2ccc(OC)cc2OC)nc1C
-- reply hi

-- ask Follow-up entry: N#C/C=C\Oc1ccc(Cl)cc1N
-- reply lo

-- ask Follow-up entry: COc1cccc(/C=C/c2ccc3ccccc3n2)c1OC(C)=O
-- reply hi

-- ask Follow-up entry: Cc1cc(C(=O)COC(=O)C2CC2)c(C)n1-c1ccc(F)cc1
-- reply hi

-- ask Follow-up entry: CCOc1ccc(N/C=C/C(=O)c2ccccc2)cc1
-- reply hi

-- ask Follow-up entry: CCc1nc(SCC(=O)Nc2ccccc2OC)n[nH]1
-- reply lo

-- ask Follow-up entry: Cc1cnc(NC(=O)c2ccccn2)s1
-- reply med

-- ask Follow-up entry: O=c1oc(/C=C/c2ccccc2)nc2ccccc12
-- reply med

-- ask Follow-up entry: Cc1csc(SCC(=O)Nc2sccc2C#N)n1
-- reply med

-- ask Follow-up entry: O=[N+]([O-])/C=C/c1ccc2c(ccn2Cc2ccccc2)c1
-- reply hi

-- ask Follow-up entry: CCOc1ccc(OCc2ccc(C(=O)N(C)c3ccccc3)o2)cc1
-- reply lo

-- ask Follow-up entry: O=C(Nc1cccnc1)c1noc2c1CCCCC2
-- reply med

-- ask Follow-up entry: Cc1ccc2nc(/C(C#N)=C\c3ccc(OC(=O)c4cccs4)cc3)[nH]c2c1
-- reply lo

-- ask Follow-up entry: Cc1nn(CC(=O)Nc2ccc(F)cc2)c(=O)c2ccccc12
-- reply lo
